- System: Rat fibroblasts (CREF)
- assay.method.text: Peg3 promoter luciferase inhibitors, potency, dose response, cell-based, HeLa, CREF/GAPDH counter-screen panel (AID 624167)
- condition.info: CREF/GAPDH counter-screens, run 2, dose range 1, individual replicate IC50 per panel
Measured IC50, listed per entry for reference.

Please review the following examples before continuing.
1) CC1CCN(c2ccc(-c3cccs3)nn2)CC1: 0.366 µM
2) O=c1c2ccccc2sc2nc(CCl)nn12: > 100 µM
3) Cc1c(C)c2ccc(OCC(=O)Nc3ccccn3)c(C)c2oc1=O: 1.86 µM
4) O=C(CN1C(=O)c2ccccc2S1(=O)=O)c1ccc2c(c1)OCCO2: 1.94 µM
5) COC(=O)Cc1[nH]n(-c2nc3ccccc3s2)c(=O)c1C(C)=Nc1ccc(C)cc1: 4.52 µM

Problem: Please look up its IC50: "O=C(OCC(F)(F)F)c1cccc(COc2ccc3ccccc3c2)c1"
Result: 17.3 µM

Problem: Please look up its IC50: "CC(=O)c1sc2c(c1OC(=O)c1ccc(Cl)cc1Cl)c(=O)n(-c1ccccc1)c(=S)n2-c1ccccc1"
Result: > 100 µM

Problem: Please look up its IC50: "CCN(CC)S(=O)(=O)c1cccc(C(=O)N/N=C(\C)c2ccc(O)cc2O)c1"
Result: 48.2 µM

Problem: Please look up its IC50: "Cc1cc(Br)ccc1NC(=O)CNC(=O)Cn1ncc(Cl)c(Cl)c1=O"
Result: > 100 µM

Problem: Please look up its IC50: "Cc1ccc(NC(=S)NC(=O)c2ccc(F)cc2)cc1S(=O)(=O)Nc1ccccc1Cl"
Result: 1.35 µM

###

Measured IC50, listed per entry for reference.
- System: Rat fibroblasts (CREF)
- assay.method.text: Peg3 promoter luciferase inhibitors, potency, dose response, cell-based, HeLa, CREF/GAPDH counter-screen panel (AID 624167)
- condition.info: CREF/GAPDH counter-screens, mean of runs
Activity calls are given as the source filed them.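 The calls were made as follows: active = mean IC50 for reducing PEG3 promoter reporter signal at or below a set limit, with IC50 above the limit in both counter screens; inactive = the rest, including counter screen hits.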

1. O=c1c(Cl)c(N2CCCCC2)cnn1-c1nc2ccccc2[nH]1: 0.714 µM
2. CCC(C)Cn1c(O)cc2nn(-c3nc4ccccc4s3)c(=O)c-2c1C (stereo not drawn): 65.6 µM (inactive)

Problem: Please look up its IC50: "O=C(/C=C/c1ccccc1)Nc1cccc(C(=O)O)c1"
Result: 5.31 µM

###

- Test system: PEG-3
- assay.method.text: Peg3 promoter luciferase inhibitors, potency, dose response, cell-based, HeLa, CREF/GAPDH counter-screen panel (AID 624167)
- condition.info: HeLa PEG-Prom luciferase reporter, overnight, CREF/GAPDH counter-screens, run 1, dose range 1, individual replicate IC50 per panel
readout.type: pIC50
Answer as the number alone; pIC50 is minus log10 of concentration in mol/L.

Please review the following examples before continuing.
1. Cc1cc(C)c2sc(N(CCCN(C)C)C(=O)c3ccc(S(=O)(=O)N4CCCc5ccccc54)cc3)nc2c1: 4.68
2. CC1(Cc2ccc(Cl)c(Cl)c2)C(=O)Nc2ccc(S(=O)(=O)NC3CCCCC3)cc21 (stereo not given): 4.74
3. CCOC(=O)c1c(-n2c(C)cc(C=C3C(=O)NC(=S)NC3=O)c2C)sc2c1CCCC2: 5.23
4. COC(=O)c1ccc(Nc2cc(C)nc3ccc(C)cc23)cc1: 4.75
5. Cc1ccc(S(=O)(=O)c2nc(-c3ccccc3Cl)oc2N(C)C2CCN(C)CC2)cc1: 4.49
6. Cc1nn(-c2nc3ccccc3[nH]2)c(=O)c2ccccc12: 6.29
7. O=c1cnnc(N/N=C/c2ccccn2)[nH]1: 5.77
8. COCCn1c(C)cc(C2=NNC(=NC3CC3)SC2)c1C: 5.88
9. O=C1CCCCC1Sc1nnc(-c2ccc3c(c2)OCO3)o1 (stereo not given): 5.77

With those in mind, consider the next compound.
Problem: Given the entry CC(C)CCCCCCCCCCCCC(=O)NCC(=O)NC1C(O)C(O)C(Nc2ncnc3nc[nH]c23)OC1C(O)CO (stereo not given) , what pIC50 was observed with PEG-3?
Result: 5.46

###

- assay.method.text: Peg3 promoter luciferase inhibitors, potency, dose response, cell-based, HeLa, CREF/GAPDH counter-screen panel (AID 624167)
- condition.info: CREF/GAPDH counter-screens; GAPDH; mean of runs
Active and inactive are the calls of the source.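 Rule for the calls: active = mean IC50 for reducing PEG3 promoter reporter signal at or below a set limit, with IC50 above the limit in both counter screens; inactive = the rest, including counter screen hits.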
Outcome (select one): active, inactive

See these solved cases before continuing.
1) CC(C)CC1C(=O)N(Cc2cn(Cc3ccco3)nn2)CCS(=O)(=O)N1Cc1ccc(-c2ccc(F)cc2)cc1 (stereo not given): inactive
2) Cc1ccc(OCC(=O)c2cc(C)n(-c3ccccc3)c2C)c([N+](=O)[O-])n1: active
3) O=C(N/N=C/c1sc(N2CCOCC2)nc1-c1ccccc1)c1cccc(S(=O)(=O)N2CCCC2)c1: inactive

Problem: Please state the recorded outcome for this molecule: CN(C)CC1CCC/C(=C\c2ccc(OC(=O)c3ccc(Cl)cc3)cc2)C1=O (stereo not given)
Result: inactive

Problem: Please state the recorded outcome for this molecule: "CC(=O)c1ccc(-c2cnc3c(NC=O)cc(-c4ccccc4Oc4ccccc4)cn23)cc1"
Result: inactive

###

Measured IC50, listed per entry for reference.
- assay.method.text: Peg3 promoter luciferase inhibitors, potency, dose response, cell-based, HeLa, CREF/GAPDH counter-screen panel (AID 624167)
- condition.info: CREF/GAPDH counter-screens; GAPDH; mean of runs
Calls of active or inactive are those of the source.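 The calls were made as follows: active = mean IC50 for reducing PEG3 promoter reporter signal at or below a set limit, with IC50 above the limit in both counter screens; inactive = the rest, including counter screen hits.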

Please review the following examples before continuing.
1. CN(C)c1c([N+](=O)[O-])cc(N2C(=O)C=CC2=O)cc1[N+](=O)[O-]: 23.6 µM
2. CCC(C)Cn1c(O)cc2nn(-c3nc4ccccc4s3)c(=O)c-2c1C (centres undefined): 2.79 µM
3. O=C(O)c1ccc(N/N=C/c2ccc3nccnc3c2)cc1: 1.38 µM
4. CN1CCC2(CC1)N=C(c1ccc(F)cc1)C(=S)N2C(=O)c1ccc(C(C)(C)C)cc1: 20.5 µM
5. O=C(Nc1ccccc1C(=O)Nc1nnc(C(F)(F)F)s1)c1ccccc1: 7.97 µM
6. CN(C)S(=O)(=O)c1ccc(-c2csc(N/N=C/c3ccc(O)cc3)n2)cc1: 12.1 µM
7. COc1ccccc1Nc1nc(-c2sc(NC(=O)c3ccco3)nc2C)cs1: > 100 µM (inactive)

Problem: Please look up its IC50: COc1cccc2c1C(=O)c1c(O)c3c(c(O)c1C2=O)CC(O)(C(C)=NNC(=O)c1ccc(Cl)c(Cl)c1)CC3OC1CC(N)C(O)C(C)O1 (centres undefined)
Result: 7.16 µM

###

Measured IC50, listed per entry for reference.
- Tested on: Rat fibroblasts (CREF)
- assay.method.text: Peg3 promoter luciferase inhibitors, potency, dose response, cell-based, HeLa, CREF/GAPDH counter-screen panel (AID 624167)
- condition.info: CREF/GAPDH counter-screens, run 1, dose range 1, individual replicate IC50 per panel
Lab book: enter the figure in µM, no units written.

1) COCCn1c(C)cc(C(=O)CSc2nnc(C)s2)c1C: 6.79

Problem: Please look up its IC50: "S=C(NN=C(c1ccccc1)c1ccccn1)N(Cc1ccccn1)Cc1ccccn1"
Result: 4.59

Problem: Please look up its IC50: "O=c1cc(-c2ccc(O)cc2)oc2ccc3ccccc3c12"
Result: 0.883

Problem: Please look up its IC50: "O=C(O)c1cccc(COc2ccc3c(c2)CCC3)c1"
Result: 10.7

###

- measurement.target: PEG-3 (UniProt Q6IN02)
- Sequence (Q6IN02 whole entry, looked up): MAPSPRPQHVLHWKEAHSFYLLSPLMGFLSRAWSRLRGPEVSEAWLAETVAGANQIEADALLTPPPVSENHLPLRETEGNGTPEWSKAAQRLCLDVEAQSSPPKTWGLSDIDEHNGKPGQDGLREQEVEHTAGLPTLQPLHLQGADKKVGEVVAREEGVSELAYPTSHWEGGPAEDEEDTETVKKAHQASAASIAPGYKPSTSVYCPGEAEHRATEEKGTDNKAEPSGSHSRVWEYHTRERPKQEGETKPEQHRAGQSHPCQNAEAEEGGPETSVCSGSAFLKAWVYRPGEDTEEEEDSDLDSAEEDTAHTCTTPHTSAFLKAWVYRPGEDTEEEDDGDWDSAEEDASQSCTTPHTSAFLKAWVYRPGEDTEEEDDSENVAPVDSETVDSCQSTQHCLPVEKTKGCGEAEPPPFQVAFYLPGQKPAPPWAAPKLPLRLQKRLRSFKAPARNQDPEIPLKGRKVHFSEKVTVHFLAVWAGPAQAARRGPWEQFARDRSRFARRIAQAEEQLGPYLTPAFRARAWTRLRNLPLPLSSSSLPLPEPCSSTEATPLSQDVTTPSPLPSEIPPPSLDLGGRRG
- assay.method.text: Peg3 promoter luciferase inhibitors, potency, dose response, cell-based, HeLa, CREF/GAPDH counter-screen panel (AID 624167)
- condition.info: HeLa PEG-Prom luciferase reporter, overnight, CREF/GAPDH counter-screens, mean of runs
Calls of active or inactive are those of the source.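 The calls were made as follows: active = mean IC50 for reducing PEG3 promoter reporter signal at or below a set limit, with IC50 above the limit in both counter screens; inactive = the rest, including counter screen hits.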
Outcome (select one): Y = active, N = inactive

See these solved cases before continuing.
1. Cc1ccc(NCCN(C)C)c2c(=O)c3cc(O)ccc3sc12: Y
2. O=C(Nc1cccc(-c2cccc(Cl)c2)c1)C1CCN(C2CCC2)CC1: Y
3. CCC1CCCCN1S(=O)(=O)c1ccc(C(=O)N(CCCN(C)C)c2nc3cc4c(cc3s2)OCO4)cc1 (stereo not given): N
4. Cn1c(=O)c(C(=O)CCl)c(N)n(Cc2ccccc2)c1=O: N

Problem: Please state the recorded outcome for this molecule: CCn1c2ccccc2c2cc(NC(=O)C(C)OC(=O)c3ccc(NC(=O)CC#N)cc3)ccc21 (stereo not given)
Result: N

Problem: Please state the recorded outcome for this molecule: "CC1=NOC(=O)/C1=C\c1ccc(-c2ccccc2Br)o1"
Result: Y

Problem: Please state the recorded outcome for this molecule: "Cc1ccc2nc(C)cc(Nc3ccc([N+](=O)[O-])cc3)c2c1"
Result: Y

Problem: Please state the recorded outcome for this molecule: "c1ccc(CN2CCC(Nc3nc(-c4cccnc4)nc4ccccc34)CC2)cc1"
Result: N

Problem: Please state the recorded outcome for this molecule: "COc1ccc(-c2ccc3[nH]c4c(c3c2)CCN2C[C@@H]([C@H](C)O)[C@@H](N(C)C(=O)Nc3cc(Cl)cc(Cl)c3)C[C@@H]42)cc1"
Result: N

Problem: Please state the recorded outcome for this molecule: "COc1cccc(/C=C2/Sc3ccc(C(=O)NCCCN4CCCC4)cc3NC2=O)c1"
Result: Y

Hello, the source for this data is PubChem BioAssay AID624167, in case you need it.
